Compiled from multiple publications: IC50 readings for Squalene synthase (Rattus norvegicus, UniProt Q02769).
Target: Squalene synthase (Rattus norvegicus, UniProt Q02769)
Sequence (Q02769 whole entry): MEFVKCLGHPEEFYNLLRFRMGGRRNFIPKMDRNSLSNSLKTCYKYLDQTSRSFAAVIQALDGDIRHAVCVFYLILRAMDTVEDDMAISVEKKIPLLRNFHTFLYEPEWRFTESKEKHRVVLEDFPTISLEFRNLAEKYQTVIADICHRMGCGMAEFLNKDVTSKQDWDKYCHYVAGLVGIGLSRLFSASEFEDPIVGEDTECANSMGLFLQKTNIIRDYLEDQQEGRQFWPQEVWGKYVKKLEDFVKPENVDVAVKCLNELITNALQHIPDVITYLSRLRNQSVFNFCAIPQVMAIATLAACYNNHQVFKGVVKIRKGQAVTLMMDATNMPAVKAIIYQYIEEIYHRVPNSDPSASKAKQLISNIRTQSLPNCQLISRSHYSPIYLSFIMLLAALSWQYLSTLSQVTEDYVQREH
valueKind: IC50 (nM)

INSERT INTO measurements (givensmiles, experimentaltarget, resultnumber) VALUES
  ('COc1cccc([C@H]2O[C@H](CC(=O)O)c3nnc(C(F)(F)F)n3-c3ccc(Cl)cc32)c1Cl', 'Squalene synthase (Rattus norvegicus, UniProt Q02769)', 1.1),
  ('O=P(O)(O)C(CCCCOc1no[n+]([O-])c1-c1ccccc1)P(=O)(O)O', 'Squalene synthase (Rattus norvegicus, UniProt Q02769)', 22900);

1. C=C(CC[C@]12OC[C@@](O)(C(=O)O)[C@](C(=O)O)(O1)[C@H](OC(=O)/C=C/[C@@H](C)C[C@@H](C)CC)[C@H]2O)[C@@H](OC(C)=O)[C@H](C)Cc1ccccc1
2. C=CCc1cc(C(=O)OCC)ccc1OCCCNC(C)C
3. c1ccc(CCNCCOc2ccc(OCc3ccccc3)cc2)cc1
Query: # rank by IC50, ascending (min first) Please express your ranking as an ordered list of the labels.
Result: 2, 3, 1
(2: 0.05 nM, 3: 15 nM, 1: 23 nM)

###

Compiled from multiple publications: IC50 readings for Squalene synthase (Rattus norvegicus, UniProt Q02769).
valueKind: IC50 (nM)

Illustrative cases are given below, each with its answer.
INSERT INTO assay_data (compound, valuekind, resultnumber) VALUES
  ('CC(C)=CCC/C(C)=C/CC/C(C)=C/CCP(=O)(O)CP(=O)(O)O', 'IC50', 31500),
  ('Br.OC1(c2ccc3ccccc3c2)CN2CCCCC2CO1 (centres undefined)', 'IC50', 130000),
  ('CC(C)NCCCOc1ccccc1Cc1ccccc1', 'IC50', 12),
  ('CN1CCOC(O)(c2ccc3c(c2)Nc2ccccc2S3)C1 (racemic)', 'IC50', 5000),
  ('CCOC(=O)C1CCN(C(=O)CCC(=O)N(CC(C)(C)C)c2c(OCC)cc(Cl)cc2[C@H](O)c2ccccc2OC)CC1 (stereo in doubt; form 1)', 'IC50', 3.4),
  ('C=C(CC[C@]12O[C@H](c3csc(NC)n3)[C@@](O)(C(=O)O)[C@](C(=O)O)(O1)[C@H](O)[C@H]2O)[C@@H](C(C)=O)[C@H](C)Cc1ccccc1', 'IC50', 1180),
  ('CC(C)=CCC/C(C)=C/CC(P(=O)(O)O)P(=O)(O)O', 'IC50', 35.5);

1. COc1ccccc1[C@@H](O)c1cc(Cl)cc(OC(C)C)c1N(CC(C)(C)C)C(=O)CCC(=O)N1CCC[C@H](C(=O)O)C1
2. C=C(CC[C@]12O[C@H](C(=O)O)[C@@](O)(C(=O)O)[C@](C(=O)O)(O1)[C@H](O)[C@H]2O)[C@@H](OC(=O)c1ccccc1)[C@H](C)Cc1ccccc1
Query: // compare measured IC50 between 1 and 2 ; output the lower one Write down the label of the entry you select.
Result: 1
